Target: Sphingosine 1-phosphate receptor 3 (Homo sapiens, UniProt Q99500)
Sequence (Q99500 whole entry): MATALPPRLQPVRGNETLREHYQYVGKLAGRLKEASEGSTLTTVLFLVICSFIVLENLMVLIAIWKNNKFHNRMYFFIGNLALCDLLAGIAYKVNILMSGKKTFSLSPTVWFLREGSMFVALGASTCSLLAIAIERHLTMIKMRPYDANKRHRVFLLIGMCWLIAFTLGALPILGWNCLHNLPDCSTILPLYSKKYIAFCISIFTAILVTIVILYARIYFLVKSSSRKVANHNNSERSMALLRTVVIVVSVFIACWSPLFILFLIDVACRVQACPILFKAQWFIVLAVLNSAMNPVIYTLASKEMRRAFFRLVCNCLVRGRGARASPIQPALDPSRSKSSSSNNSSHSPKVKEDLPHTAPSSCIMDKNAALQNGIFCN
EXPERIMENTAL_READOUT: pKi
Entry type: numeric. Quantity: pKi, the -log10 of concentration in molar units.

Data request: Under Sphingosine 1-phosphate receptor 3 (Homo sapiens, UniProt Q99500): pKi value of CCCCCCCCc1cccc(NC(=O)[C@H](N)CCP(=O)(O)O)c1 ?
Data returned: 6.52

----------
Provide the reported ECmax of each item.
Biological target: Sphingosine 1-phosphate receptor 2 (Homo sapiens)
Sequence (O95136 whole entry): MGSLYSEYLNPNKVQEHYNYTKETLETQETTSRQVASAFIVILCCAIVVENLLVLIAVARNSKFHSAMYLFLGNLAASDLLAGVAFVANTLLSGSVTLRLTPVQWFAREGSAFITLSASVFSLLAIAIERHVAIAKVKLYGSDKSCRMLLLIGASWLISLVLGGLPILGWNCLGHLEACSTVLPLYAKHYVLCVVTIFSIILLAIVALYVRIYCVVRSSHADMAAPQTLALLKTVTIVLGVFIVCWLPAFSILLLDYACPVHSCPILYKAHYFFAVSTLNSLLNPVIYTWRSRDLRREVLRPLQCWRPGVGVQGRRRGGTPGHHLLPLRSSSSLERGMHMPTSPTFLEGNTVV
Experiment: Efficacy at human S1P2 receptor expressed in HEK293T cells relative to S1P
Assay type: functional, cell-based
Conditions: HEK-293T
Respond using a number only.

Data request: Look up ECmax for this molecule: CCCCCCCCc1ccc(OC[C@@H](O)CCP(=O)(O)O)cc1
Data returned: 0

Data request: Which ECmax is reported for this molecule? CCCCCCCCc1ccc(NC(=O)[C@H](N)CCP(=O)(O)O)cc1
Data returned: 0

Data request: ECmax for CCCCCCCCc1cccc(NC(=O)[C@@H](N)CCP(=O)(O)O)c1 ?
Data returned: 0

Data request: May I ask what ECmax has been recorded for CCCCCCCCc1ccc(CCC(N)(CO)COP(=O)(O)O)cc1 (stereo unspecified) ?
Data returned: 0

Data request: # query: ECmax of entry CCCCCCCCc1ccc(NC(=O)[C@@H](N)CCP(=O)(O)O)cc1
Data returned: 0

Data request: Entry CCCCCCCCCCc1ccc(NC(=O)[C@H](N)CCP(=O)(O)O)cc1 : reported ECmax = ?
Data returned: 0.5

Data request: Tell me the measured ECmax of CCCCCCCCc1cccc(NC[C@H](N)CCP(=O)(O)O)c1 , please.
Data returned: 0

Data request: Recorded ECmax for CCCCCCCCc1ccc(OC[C@@H](N)CCP(=O)(O)O)cc1 , please?
Data returned: 0

Data request: Could you share which ECmax value was measured for CCCCCCCCc1cccc(NC(=O)[C@H](N)CCP(=O)(O)O)c1 ?
Data returned: 0

Data request: Give the measured ECmax of CCCCCCCCc1ccc(OC[C@H](N)CCP(=O)(O)O)cc1 .
Data returned: 0.5

Data request: Data request, read-out ECmax, for CCCCCCCCCCc1ccc(NC(=O)[C@H](N)CC(F)P(=O)(O)O)cc1 (stereo partly specified)
Data returned: 0.47

----------
Target: Sphingosine 1-phosphate receptor 5 (Homo sapiens, UniProt Q9H228)
Sequence (Q9H228 whole entry): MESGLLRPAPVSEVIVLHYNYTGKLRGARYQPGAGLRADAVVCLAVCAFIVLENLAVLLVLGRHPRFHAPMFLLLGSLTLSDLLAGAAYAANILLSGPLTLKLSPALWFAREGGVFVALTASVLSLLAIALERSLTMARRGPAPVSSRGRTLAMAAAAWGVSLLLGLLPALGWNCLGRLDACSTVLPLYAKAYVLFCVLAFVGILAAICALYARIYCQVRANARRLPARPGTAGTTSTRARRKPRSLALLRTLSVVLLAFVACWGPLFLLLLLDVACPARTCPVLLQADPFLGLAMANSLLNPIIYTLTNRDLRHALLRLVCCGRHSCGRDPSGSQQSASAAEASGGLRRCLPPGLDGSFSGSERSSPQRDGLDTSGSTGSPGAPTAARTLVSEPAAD
Experiment: Efficacy at human S1P5 receptor expressed in HEK293T cells relative to S1P
Format: functional, cell-based
Details: HEK-293T
Cut-off 0.6 on ECmax, inclusive. At or above means Satisfied; below means Not satisfied.

Data request: Decide: is the reported value of ECmax for CCCCCCCCCCc1ccc(NC(=O)[C@H](N)CCP(=O)(O)O)cc1 equal to or greater than 0.6?
Data returned: Satisfied

Data request: Determine whether measured ECmax meets or exceeds 0.6 for CCCCCCCCc1ccc(OC[C@@H](N)CCP(=O)(O)O)cc1
Data returned: Not satisfied

Data request: Form field: ECmax at least 0.6? Entry: CCCCCCCCc1ccc(OC[C@H](N)CCP(=O)(O)O)cc1
Data returned: Not satisfied

Data request: Assess whether reported ECmax for CCCCCCCCc1ccc(OC[C@@H](O)CCP(=O)(O)O)cc1 sits at 0.6 or higher.
Data returned: Not satisfied

Data request: Given the entry CCCCCCCCc1ccc(CCC(N)(CO)COP(=O)(O)O)cc1 (stereo not drawn) , answer whether its ECmax meets or surpasses 0.6.
Data returned: Not satisfied

Data request: ECmax >= 0.6 for CCCCCCCCc1cccc(NC(=O)[C@H](N)CCP(=O)(O)O)c1 ?
Data returned: Satisfied

Data request: Does the reported ECmax for CCCCCCCCc1ccc(NC(=O)[C@H](N)CCP(=O)(O)O)cc1 fall at or above the 0.6 mark?
Data returned: Satisfied

----------
Target: Sphingosine 1-phosphate receptor 5 (Homo sapiens, UniProt Q9H228)
Assay: Activity at human S1P5 receptor expressed in HEK293T cells by [35S]GTP-gamma-S binding assay
EXPERIMENTAL_READOUT: EC50
The answer consists of two parts: a number and, after it, its unit.

Data request: State its EC50 on Sphingosine 1-phosphate receptor 5 (Homo sapiens, UniProt Q9H228): CCCCCCCCc1cccc(NC(=O)[C@H](N)CCP(=O)(O)O)c1
Data returned: 33 nM

Data request: Lab note: need EC50 for CCCCCCCCc1cccc(NC[C@H](N)CCP(=O)(O)O)c1 on Sphingosine 1-phosphate receptor 5 (Homo sapiens, UniProt Q9H228), anyone have it?
Data returned: 41 nM

Data request: Request - read-out EC50 | tested on Sphingosine 1-phosphate receptor 5 (Homo sapiens, UniProt Q9H228) | compound CCCCCCCCCCc1ccc(NC(=O)[C@H](N)CCP(=O)(O)O)cc1
Data returned: 30 nM

Data request: For the record CCCCCCCCc1ccc(OC[C@@H](N)CCP(=O)(O)O)cc1 , what value of EC50 is listed for Sphingosine 1-phosphate receptor 5 (Homo sapiens, UniProt Q9H228)?
Data returned: 31 nM

Data request: Hi! What's the reported EC50 for CCCCCCCCc1ccc(OC[C@H](N)CCP(=O)(O)O)cc1 on Sphingosine 1-phosphate receptor 5 (Homo sapiens, UniProt Q9H228)?
Data returned: 47 nM

Data request: API: value(readout=EC50, system=Sphingosine 1-phosphate receptor 5 (Homo sapiens, UniProt Q9H228)) for record CCCCCCCCc1ccc(NC(=O)[C@H](N)CCP(=O)(O)O)cc1
Data returned: 76 nM

----------
Target: Sphingosine 1-phosphate receptor 3 (Homo sapiens, UniProt Q99500)
Assay: Activity at human S1P3 receptor expressed in HEK293T cells by [35S]GTP-gamma-S binding assay
EXPERIMENTAL_READOUT: pEC50
Kindly note that pEC50 refers to -log10 of the concentration in mol/L and answer with the value alone.

Data request: Could you share which pEC50 value was measured for CCCCCCCCCCc1ccc(NC(=O)[C@H](N)CCP(=O)(O)O)cc1 ?
Data returned: 7.37

Data request: Request the reported pEC50 associated with CCCCCCCCc1ccc(NC(=O)[C@@H](N)CCP(=O)(O)O)cc1
Data returned: 4.82

Data request: Quick one: pEC50 for CCCCCCCCc1ccc(NC(=O)[C@H](N)CCP(=O)(O)O)cc1 ?
Data returned: 6.57

Data request: Look at this compound and give its reported pEC50. CCCCCCCCc1ccc(OC[C@H](N)CCP(=O)(O)O)cc1
Data returned: 7.00

Data request: Would you kindly share the measured pEC50 for CCCCCCCCCCc1ccc(NC(=O)[C@H](N)CC(F)P(=O)(O)O)cc1 (stereo not given in full) ?
Data returned: 7.64

----------
Kindly supply the reported ECmax values for the records listed here.
Biological target: Sphingosine 1-phosphate receptor 4 (Homo sapiens)
Test: Efficacy at human S1P4 receptor expressed in HEK293T cells relative to S1P
Assay type: functional, cell-based
Details: HEK-293T
Respond numerically, and do not add a unit to the figure.

Data request: So what does the record say about ECmax for CCCCCCCCc1ccc(OC[C@@H](N)CCP(=O)(O)O)cc1 ?
Data returned: 0.71

Data request: May I ask what ECmax has been recorded for CCCCCCCCc1ccc(OC[C@@H](O)CCP(=O)(O)O)cc1 ?
Data returned: 0.45

Data request: Query: ECmax; subject: CCCCCCCCCCc1ccc(NC(=O)[C@H](N)CCP(=O)(O)O)cc1
Data returned: 0.67

Data request: Looking for the measured ECmax of CCCCCCCCc1cccc(NC[C@H](N)CCP(=O)(O)O)c1 , can you help?
Data returned: 1.18

Data request: GET /values?readout=ECmax&item= CCCCCCCCc1ccc(OC[C@H](N)CCP(=O)(O)O)cc1
Data returned: 0.9

Data request: Could you tell me which ECmax is on file for CCCCCCCCc1ccc(CCC(N)(CO)COP(=O)(O)O)cc1 (stereo not drawn) ?
Data returned: 0.9

Data request: Look at this compound and give its reported ECmax. CCCCCCCCc1cccc(NC(=O)[C@H](N)CCP(=O)(O)O)c1
Data returned: 1.42

Data request: Fill in: ECmax of CCCCCCCCc1ccc(NC(=O)[C@H](N)CCP(=O)(O)O)cc1 is ___
Data returned: 0.8

----------
Target: Sphingosine 1-phosphate receptor 2 (Homo sapiens)
Assay: Activity at human S1P2 receptor expressed in HEK293T cells by [35S]GTP-gamma-S binding assay
EXPERIMENTAL_READOUT: pEC50
Remember the convention: pEC50 equals -log10 of concentration in molar.

Data request: // returns reported pEC50 for input CCCCCCCCCCc1ccc(NC(=O)[C@H](N)CCP(=O)(O)O)cc1
Data returned: 6.57

Data request: Which pEC50 reading was recorded for the compound CCCCCCCCc1ccc(OC[C@H](N)CCP(=O)(O)O)cc1 ?
Data returned: 6.28

Data request: Query: pEC50; subject: CCCCCCCCCCc1ccc(NC(=O)[C@H](N)CC(F)P(=O)(O)O)cc1 (stereo partly drawn)
Data returned: 6.31
